Reference source: the RNAGym collection of RNA variant scans (doi:10.1093/molbev/msab373)

B1: Azoarcus group I ribozyme (parent)
chain: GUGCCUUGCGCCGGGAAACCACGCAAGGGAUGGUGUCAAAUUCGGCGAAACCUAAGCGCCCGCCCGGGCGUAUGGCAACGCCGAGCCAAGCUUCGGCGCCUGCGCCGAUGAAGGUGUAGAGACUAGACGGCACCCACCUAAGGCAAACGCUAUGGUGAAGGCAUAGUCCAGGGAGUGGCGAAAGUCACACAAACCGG

- Variants of: B1
- experimental-details: reverse-splicing fitness (ratio to wild type); higher = more active; in vitro selection; Mg2+ level not given
# if value of reverse-splicing fitness reaches 0.01, tag YES; if it stays below, tag NO

Please review the entries below; each comes with its answer.
* A111U A145C C150G C169A U176G | NO
* C82U A120G A145G C150A C169U U176A | YES
* C82G A111C A145G C150A C169A U176A | YES
* C82G A111C A120G A145U C169G U176A | YES
* C82U A111C A120G A145C C150A C169A U176G | NO
* A111C C169A U176G | NO
* C82G A111C A120G A145G C169U | YES
* C82G A111C A120G A145U C169U | YES

Does reverse-splicing fitness meet or surpass 0.01 for C82G A111C A120C A145G C150G C169A U176C ? YES

Can you handle C82G A111U A120G C150A U176C next? YES

Can you handle C82G A111G C150G C169U U176G next? NO

Can you handle C82U A145G C169U U176A next? YES
